assay: UV-Vis absorption and fluorescence spectroscopy of the Oxazine library; format: physicochemical
experimentalEndpoint: Max Abs (nm)

INSERT INTO results (compound, experimentalendpoint, quantityunit, assayvalue) VALUES
  ('CC/N=c1/cc2oc3cc4c(cc3nc-2cc1C)CCN4', 'Max Abs', 'nm', 613),
  ('CC[N+](CC)=c1ccc2nc3cc4c5c(c3oc-2c1)CCCN5CCC4', 'Max Abs', 'nm', 661),
  ('CC[N+](CC)=c1ccc2nc3cc4c(cc3oc-2c1)NCC4', 'Max Abs', 'nm', 631),
  ('CC[N+](CC)=c1ccc2nc3cc4c(cc3oc-2c1)NCCO4', 'Max Abs', 'nm', 646),
  ('CCN1CCc2cc3c(cc21)Oc1cc2c(cc1=N3)CC[N+]=2CC', 'Max Abs', 'nm', 649),
  ('CCNc1cc2oc3cc(=[N+](CC)CC)ccc-3nc2cc1Cl', 'Max Abs', 'nm', 638),
  ('CCN(CC)c1cc2oc3cc(=[N+](CC)CC)ccc-3nc2cc1C', 'Max Abs', 'nm', 664),
  ('CC/N=c1/cc2oc3cc(NCC)cc(C)c3nc-2cc1C', 'Max Abs', 'nm', 611),
  ('CCNc1cc2oc3cc(=[N+](CC)CC)ccc-3nc2cc1F', 'Max Abs', 'nm', 636),
  ('CCNc1cc(C)c2nc3ccc(=[N+](CC)CC)cc-3oc2c1', 'Max Abs', 'nm', 630),
  ('CC[N+](CC)=c1ccc2nc3ccc(N(C)C)cc3oc-2c1', 'Max Abs', 'nm', 654),
  ('CCCNc1cc2oc3c/c(=N/CC)c(C)cc-3nc2cc1C', 'Max Abs', 'nm', 620),
  ('CC/N=c1/cc2oc3cc4c(cc3nc-2cc1C)OCCN4', 'Max Abs', 'nm', 607),
  ('CCNc1ccc2nc3ccc(=[N+](CC)CC)cc-3oc2c1C', 'Max Abs', 'nm', 645),
  ('CCN1c2cc3oc4cc(=[N+](CC)CC)ccc-4nc3cc2C(C)=CC1(C)C', 'Max Abs', 'nm', 678);

###

assay: UV-Vis absorption and fluorescence spectroscopy of the Oxazine library; format: physicochemical; conditions: Beer's Law plots
experimentalEndpoint: Extinction coefficient (M⁻¹ cm⁻¹)

INSERT INTO measurements (compound, experimentalendpoint, assayvalue) VALUES
  ('CCN1CCc2cc3c(cc21)Oc1cc2c(cc1=N3)CC[N+]=2CC', 'Extinction coefficient', 51130),
  ('c1c2c3c(c4c1N=c1cc5c6c(c1O4)CCC[N+]=6CCC5)CCCN3CCC2', 'Extinction coefficient', 59937),
  ('CCN1CCCc2cc3c(cc21)Oc1cc2c(cc1=N3)CCC[N+]=2CC', 'Extinction coefficient', 59971),
  ('CC/N=c1\ccc2nc3ccc(NCC)c(C)c3oc-2c1C', 'Extinction coefficient', 56713);

(1) CCCNc1cc2oc3c/c(=N/CC)c(C)cc-3nc2cc1C
(2) CCNc1cc2oc3cc(=[N+](CC)CC)ccc-3nc2cc1Cl
Given the listed items, does 1 or 2 have the lesser reported Extinction coefficient? Write the label of whichever entry you select.
2

###

experiment: UV-Vis absorption and fluorescence spectroscopy of the Oxazine library; assay type: physicochemical
experimentalEndpoint: Max Em (nm)

INSERT INTO measurements (compound, assayvalue) VALUES
  ('CC/N=c1/cc2oc3cc(NCC)c(F)cc3nc-2cc1C', 632),
  ('CC/N=c1/cc2oc3cc(N)ccc3nc-2cc1C', 617),
  ('CC/N=c1/cc2oc3cc4c(cc3nc-2cc1C)CCN4CC', 650),
  ('Cc1cc2nc3cc(C)c(=N)cc-3oc2cc1N', 606),
  ('CC/N=c1/cc2oc3cc(NCC)c(Cl)cc3nc-2cc1Cl', 638),
  ('CC[N+](CC)=c1ccc2nc3cc(C)c(N)cc3oc-2c1', 650),
  ('CC/N=c1/cc2oc3cc(NCC)c(Cl)cc3nc-2cc1C', 636),
  ('CCNc1cc2oc3cc(=[N+](CC)CC)ccc-3nc2cc1Cl', 660),
  ('CC[N+](CC)=c1ccc2nc3cc4c(cc3oc-2c1)NCC4', 659),
  ('CC/N=c1/cc2oc3cc4c(cc3nc-2cc1C)CCN4', 640),
  ('CC/N=c1/cc2oc3c4c5c(cc3nc-2cc1C)CCCN5CCC4', 667),
  ('CC[N+](CC)=c1ccc2nc3ccc(N(C)C)cc3oc-2c1', 669),
  ('CC/N=c1/cc2oc3c(C)c(NCC)ccc3nc-2cc1C', 635),
  ('CCN1CCc2cc3c(cc21)Oc1cc2c(cc1=N3)CC[N+]=2CC', 665),
  ('CC/N=c1\ccc2nc3ccc(NCC)c(C)c3oc-2c1C', 653),
  ('c1c2c(cc3c1N=c1cc4c(cc1O3)=NCCC4)NCCC2', 644),
  ('c1c2c(cc3c1Oc1cc4c(cc1=N3)OCCN=4)OCCN2', 643),
  ('CC/N=c1/cc2oc3cc4c(cc3nc-2cc1C)OCCN4', 641),
  ('CC/N=c1/cc2oc3cc4c(cc3nc-2cc1C)CCCN4', 638),
  ('CCC/N=c1/cc2oc3cc(NCCC)c(C)cc3nc-2cc1C', 638),
  ('C/N=c1/cc2oc3cc(NC)c(C)cc3nc-2cc1C', 631);

###

test: UV-Vis absorption and fluorescence spectroscopy of the Oxazine library; format: physicochemical
experimentalEndpoint: Max Em (nm)

INSERT INTO results (compound, assayvalue) VALUES
  ('CCN1CCOc2cc3c(cc21)Oc1cc2c(cc1=N3)OCC[N+]=2CC [LGW05-73]', 676),
  ('CC/N=c1/cc2oc3cc4c(cc3nc-2cc1C)OCCN4CC [LGW05-75]', 659),
  ('CC/N=c1/cc2oc3cc(N4CCCCC4)ccc3nc-2cc1C [LGW03-21]', 661),
  ('CCNc1ccc2nc3ccc(=[N+](CC)CC)cc-3oc2c1 [LGW01-25]', 660),
  ('CCNc1ccc2nc3ccc(=[N+](CC)CC)cc-3oc2c1C [LGW02-60]', 661),
  ('CCN1CCCc2cc3nc4ccc(=[N+](CC)CC)cc-4oc3cc21 [LGW02-92]', 673),
  ('CC/N=c1/cc2oc3cc4c(cc3nc-2cc1C)CCCN4CC [LGW02-91]', 657),
  ('CC/N=c1/cc2oc3cc(NCC)cc(C)c3nc-2cc1C [LGW02-59]', 636),
  ('CC/N=c1/cc2oc3cc(NCC)ccc3nc-2cc1C [LGW01-18]', 636),
  ('CN(C)c1ccc2nc3ccc(=[N+](C)C)cc-3oc2c1 [LGW01-39]', 667),
  ('CC/N=c1/cc2oc3cc(NC)c(C)cc3nc-2cc1C [LGW04-81]', 634),
  ('CCN=c1cc2oc3cc(NCC)c(C)cc3nc-2cc1C.[O-][Cl+3]([O-])([O-])O [OX-4, reference compound]', 634),
  ('CC[N+](CC)=c1ccc2nc3cc4c5c(c3oc-2c1)CCCN5CCC4 [LGW02-86]', 680),
  ('CC/N=c1/cc2oc3cc(N(CC)CC)c(C)cc3nc-2cc1C [LGW01-23]', 635),
  ('CC1=CC(C)(C)Nc2cc3c(cc21)N=c1cc2c(cc1O3)=NC(C)(C)C=C2C [LGW03-01]', 695),
  ('CC[N+](CC)=c1ccc2nc3ccc(N4CCCCC4)cc3oc-2c1 [LGW03-18]', 680),
  ('CCN1c2cc3oc4cc(=[N+](CC)CC)ccc-4nc3cc2C(C)=CC1(C)C [LGW03-52]', 699),
  ('CC/N=c1/cc2oc3cc4c(cc3nc-2cc1C)C(C)=CC(C)(C)N4 [LGW01-44]', 664),
  ('c1c2c3c(c4c1N=c1cc5c6c(c1O4)CCC[N+]=6CCC5)CCCN3CCC2 [LGW02-87]', 690);

###

assay: UV-Vis absorption and fluorescence spectroscopy of the Oxazine library; format: physicochemical
experimentalEndpoint: Max Ex (nm)

INSERT INTO results (compound, experimentalendpoint, assayvalue) VALUES
  ('CC[N+](CC)=c1ccc2nc3ccc(N(C)C)cc3oc-2c1', 'Max Ex', 655),
  ('CC/N=c1/cc2oc3cc4c(cc3nc-2cc1C)OCCN4CC', 'Max Ex', 640),
  ('CC/N=c1/cc2oc3cc4c(cc3nc-2cc1C)CCCN4CC', 'Max Ex', 645),
  ('CC[N+](CC)=c1ccc2nc3cc(C)c(N)cc3oc-2c1', 'Max Ex', 625),
  ('CC/N=c1\ccc2nc3ccc(NCC)c(C)c3oc-2c1C', 'Max Ex', 635),
  ('CC/N=c1/cc2oc3cc(NCC)cc(C)c3nc-2c(C)c1', 'Max Ex', 605),
  ('CC[N+](CC)=c1ccc2nc3cc4c5c(c3oc-2c1)CCCN5CCC4', 'Max Ex', 665),
  ('CC/N=c1/cc2oc3cc(NCC)ccc3nc-2cc1C', 'Max Ex', 620),
  ('c1cc2nc3ccc(=[N+]4CCCC4)cc-3oc2cc1N1CCCC1', 'Max Ex', 655),
  ('CN(C)c1ccc2nc3ccc(=[N+](C)C)cc-3oc2c1', 'Max Ex', 650),
  ('CCNc1cc2oc3cc(=[N+](CC)CC)ccc-3nc2cc1C', 'Max Ex', 640),
  ('CC/N=c1/cc2oc3c4c5c(cc3nc-2cc1C)CCCN5CCC4', 'Max Ex', 650),
  ('CCN=c1cc2oc3cc(NCC)c(C)cc3nc-2cc1C.[O-][Cl+3]([O-])([O-])O [OX-4, reference compound]', 'Max Ex', 620),
  ('CC/N=c1/cc2oc3cc(NC)c(C)cc3nc-2cc1C', 'Max Ex', 615),
  ('CC/N=c1/cc2oc3cc(N4CCCCC4)ccc3nc-2cc1C', 'Max Ex', 640),
  ('CCN(CC)c1cc2oc3cc(=[N+](CC)CC)ccc-3nc2cc1C', 'Max Ex', 645),
  ('CCN1CCc2cc3c(cc21)Oc1cc2c(cc1=N3)CC[N+]=2CC', 'Max Ex', 655),
  ('CCNc1ccc2nc3ccc(=[N+](CC)CC)cc-3oc2c1', 'Max Ex', 640),
  ('CCC/N=c1/cc2oc3cc(NCCC)c(C)cc3nc-2cc1C', 'Max Ex', 620),
  ('CC/N=c1/cc2oc3cc(NCC)cc(C)c3nc-2cc1C', 'Max Ex', 615);
